All figures here come from patent US5789431A.

system: SNB-75; assay: in vitro CNS cancer cell growth inhibition (NCI screen)
Attribute: cytotoxicity log GI50
Your answer is read as M, so omit the unit and give the number.

Data request: // lookup cytotoxicity log GI50 for CC(=O)NC1=C(NC(C)(C)C)C(=O)c2ccccc2C1=O
Data returned: -4.86

Data request: // lookup cytotoxicity log GI50 for CCn1c(-c2cc(OC)cc(OC)c2)nc2c1C(=O)c1ccccc1C2=O
Data returned: -4.65

Data request: // lookup cytotoxicity log GI50 for CCn1c(-c2ccccc2)nc2c1C(=O)c1ccccc1C2=O
Data returned: -4.61

Data request: // lookup cytotoxicity log GI50 for O=C(O)CCCc1nc2c(n1-c1ccccc1)C(=O)c1ccccc1C2=O
Data returned: -4.36

Below: the item to evaluate.
Data request: // lookup cytotoxicity log GI50 for O=C(Cc1ccc(F)cc1)NC1=C(Cl)C(=O)c2ccccc2C1=O
Data returned: -5.66

====

tested on: RPMI-8226; experiment: in vitro leukemia cell growth inhibition (NCI screen)
MEASURE: cytotoxicity log GI50 (M)
Your answer is read as M, so omit the unit and give the number.

Solved cases below.
Data request: // lookup cytotoxicity log GI50 for O=C(Cc1ccccc1F)NC1=C(Cl)C(=O)c2ccccc2C1=O
Data returned: -6.44

Data request: // lookup cytotoxicity log GI50 for COc1ccc(C(=O)NC2=C(Cl)C(=O)c3ccccc3C2=O)cc1
Data returned: -6.02

Below: the item to evaluate.
Data request: // lookup cytotoxicity log GI50 for O=C(Cc1ccc(F)cc1)NC1=C(Cl)C(=O)c2ccccc2C1=O
Data returned: -7.07

====

system: U 251; test: in vitro CNS cancer cell growth inhibition (NCI screen)
Attribute: cytotoxicity log GI50
Your answer is read as M, so omit the unit and give the number.

Data request: // lookup cytotoxicity log GI50 for Cc1nc2c(n1CCC(C)C)C(=O)c1ccccc1C2=O
Data returned: -4.90

Data request: // lookup cytotoxicity log GI50 for Cc1nc2c(n1Cc1ccc(Cl)cc1)C(=O)c1ccccc1C2=O
Data returned: -5.46

Data request: // lookup cytotoxicity log GI50 for COc1ccc(Cn2c(C)nc3c2C(=O)c2ccccc2C3=O)cc1
Data returned: -5.20

Data request: // lookup cytotoxicity log GI50 for Cc1ccc(Cn2c(C)nc3c2C(=O)c2ccccc2C3=O)cc1
Data returned: -5.73

Data request: // lookup cytotoxicity log GI50 for O=C(NC1=C(Cl)C(=O)c2ccccc2C1=O)c1ccc(F)cc1
Data returned: -5.73

Data request: // lookup cytotoxicity log GI50 for O=C(Cc1ccccc1F)NC1=C(Cl)C(=O)c2ccccc2C1=O
Data returned: -6.48

Data request: // lookup cytotoxicity log GI50 for NC1=C(NC(=O)Cc2ccccc2F)C(=O)c2ccccc2C1=O
Data returned: -4.44

Data request: // lookup cytotoxicity log GI50 for CCn1c(C)nc2c1C(=O)c1ccccc1C2=O
Data returned: -5.72

====

test system: MOLT-4; experiment: in vitro leukemia cell growth inhibition (NCI screen)
Attribute: cytotoxicity log GI50
Your answer is read as M, so omit the unit and give the number.

Data request: // lookup cytotoxicity log GI50 for CC(=O)NC1=C(NCc2ccc(Cl)cc2)C(=O)c2ccccc2C1=O
Data returned: -5.62

Data request: // lookup cytotoxicity log GI50 for Cc1nc2c(n1Cc1ccc(Cl)cc1)C(=O)c1ccccc1C2=O
Data returned: -5.50

Data request: // lookup cytotoxicity log GI50 for O=C(Cc1ccccc1F)NC1=C(Cl)C(=O)c2ccccc2C1=O
Data returned: -6.60

Data request: // lookup cytotoxicity log GI50 for COc1ccc(CNC2=C(NC(C)=O)C(=O)c3ccccc3C2=O)cc1
Data returned: -5.43

Data request: // lookup cytotoxicity log GI50 for CCC(c1ccccc1F)c1nc2c(n1CC)C(=O)c1ccccc1C2=O (centres unmarked)
Data returned: -4.62

Data request: // lookup cytotoxicity log GI50 for COC(=O)CCCC(=O)NC1=C(NCc2ccccc2)C(=O)c2ccccc2C1=O
Data returned: -4.47

Data request: // lookup cytotoxicity log GI50 for O=C(NC1=C(Cl)C(=O)c2ccccc2C1=O)c1ccc(F)cc1
Data returned: -5.65

Data request: // lookup cytotoxicity log GI50 for CCC(C)(C)n1c(C)nc2c1C(=O)c1ccccc1C2=O
Data returned: -4.73

Data request: // lookup cytotoxicity log GI50 for COc1ccc(Cn2c(C)nc3c2C(=O)c2ccccc2C3=O)cc1
Data returned: -5.59

Data request: // lookup cytotoxicity log GI50 for CCC(C)(C)NC1=C(NC(C)=O)C(=O)c2ccccc2C1=O
Data returned: -4.86

Data request: // lookup cytotoxicity log GI50 for CCC(c1ccc(F)cc1)c1nc2c(n1CC)C(=O)c1ccccc1C2=O (centres unmarked)
Data returned: -4.73

====

test system: IGROV1; test: in vitro ovarian cancer cell growth inhibition (NCI screen)
Attribute: cytotoxicity log GI50
Your answer is read as M, so omit the unit and give the number.

Solved cases below.
Data request: // lookup cytotoxicity log GI50 for O=C1c2ccccc2C(=O)c2[nH]c(Cc3ccc(F)cc3)nc21 [Compound 4c]
Data returned: -4.90

Data request: // lookup cytotoxicity log GI50 for COC(=O)CCC(=O)NC1=C(NCc2ccccc2)C(=O)c2ccccc2C1=O [Compound 55]
Data returned: -4.75

Data request: // lookup cytotoxicity log GI50 for O=C(Cc1ccc(F)cc1)NC1=C(Cl)C(=O)c2ccccc2C1=O [Compound 2j]
Data returned: -5.73

Others:
Data request: // lookup cytotoxicity log GI50 for O=C(NC1=C(Cl)C(=O)c2ccccc2C1=O)c1ccc(F)cc1 [Compound 2f]
Data returned: -5.77

Data request: // lookup cytotoxicity log GI50 for Cc1nc2c(n1CCCl)C(=O)c1ccccc1C2=O [Compound 21]
Data returned: -4.94

====

system: NCI-H23; assay: in vitro non-small cell lung cancer cell growth inhibition (NCI screen)
Kindly return fulfilled if reported cytotoxicity log GI50 is no lower than -5 M; return not fulfilled if it is lower.

Answered cases to consult:
Data request: Is reported cytotoxicity log GI50 greater than or equal to -5 M here: O=C(Cc1ccc(F)cc1)NC1=C(Cl)C(=O)c2ccccc2C1=O
Data returned: not fulfilled

Data request: Is reported cytotoxicity log GI50 greater than or equal to -5 M here: CCC(C)CNC1=C(NC(C)=O)C(=O)c2ccccc2C1=O (stereo not shown)
Data returned: fulfilled

Data request: Is reported cytotoxicity log GI50 greater than or equal to -5 M here: CCC(C)(C)NC1=C(NC(C)=O)C(=O)c2ccccc2C1=O
Data returned: fulfilled

Please look at the following compound next.
Data request: Is reported cytotoxicity log GI50 greater than or equal to -5 M here: CCC(C)n1c(C)nc2c1C(=O)c1ccccc1C2=O (stereo not shown)
Data returned: fulfilled

====

tested on: OVCAR-3; assay: in vitro ovarian cancer cell growth inhibition (NCI screen)
MEASURE: cytotoxicity log GI50 (M)
Your answer is read as M, so omit the unit and give the number.

Solved cases below.
Data request: // lookup cytotoxicity log GI50 for NC1=C(NC(=O)Cc2ccccc2F)C(=O)c2ccccc2C1=O [Compound 3b]
Data returned: -5.08

Data request: // lookup cytotoxicity log GI50 for O=C1c2ccccc2C(=O)c2[nH]c(Cc3ccccc3F)nc21 [Compound 4b]
Data returned: -4.84

Data request: // lookup cytotoxicity log GI50 for CCNC1=C(NC(=O)c2ccc(OC)cc2)C(=O)c2ccccc2C1=O [Compound 49]
Data returned: -4.62

Data request: // lookup cytotoxicity log GI50 for CCn1c(-c2ccc(F)cc2)nc2c1C(=O)c1ccccc1C2=O [Compound 26]
Data returned: -4.47

Data request: // lookup cytotoxicity log GI50 for O=C(O)CCc1nc2c(n1Cc1ccccc1)C(=O)c1ccccc1C2=O [Compound 61]
Data returned: -4.55

Others:
Data request: // lookup cytotoxicity log GI50 for CCC(C)n1c(C)nc2c1C(=O)c1ccccc1C2=O (stereo not drawn) [Compound 6]
Data returned: -4.49

====

system: SF-539; assay: in vitro CNS cancer cell growth inhibition (NCI screen)
MEASURE: cytotoxicity log GI50 (M)
Your answer is read as M, so omit the unit and give the number.

Solved cases below.
Data request: // lookup cytotoxicity log GI50 for CCC(C)(C)NC1=C(NC(C)=O)C(=O)c2ccccc2C1=O [Compound 36]
Data returned: -4.61

Data request: // lookup cytotoxicity log GI50 for COc1ccc(CNC2=C(NC(C)=O)C(=O)c3ccccc3C2=O)cc1 [Compound 41]
Data returned: -5.13

Data request: // lookup cytotoxicity log GI50 for Cc1ccc(Cn2c(C)nc3c2C(=O)c2ccccc2C3=O)cc1 [Compound 17]
Data returned: -5.88

Data request: // lookup cytotoxicity log GI50 for COc1ccc(Cn2c(C)nc3c2C(=O)c2ccccc2C3=O)cc1 [Compound 18]
Data returned: -5.42

Data request: // lookup cytotoxicity log GI50 for CCC(C)n1c(C)nc2c1C(=O)c1ccccc1C2=O (stereo not shown) [Compound 6]
Data returned: -4.49

Data request: // lookup cytotoxicity log GI50 for CC(=O)NC1=C(NC(C)(C)C)C(=O)c2ccccc2C1=O [Compound 32]
Data returned: -4.80

Below: the item to evaluate.
Data request: // lookup cytotoxicity log GI50 for COC(=O)CCC(=O)NC1=C(Nc2ccccc2)C(=O)c2ccccc2C1=O [Compound 54]
Data returned: -5.11
